# pEC50 per record follows
- testedTarget: UniProt:P30556
- Sequence (P30556 whole entry): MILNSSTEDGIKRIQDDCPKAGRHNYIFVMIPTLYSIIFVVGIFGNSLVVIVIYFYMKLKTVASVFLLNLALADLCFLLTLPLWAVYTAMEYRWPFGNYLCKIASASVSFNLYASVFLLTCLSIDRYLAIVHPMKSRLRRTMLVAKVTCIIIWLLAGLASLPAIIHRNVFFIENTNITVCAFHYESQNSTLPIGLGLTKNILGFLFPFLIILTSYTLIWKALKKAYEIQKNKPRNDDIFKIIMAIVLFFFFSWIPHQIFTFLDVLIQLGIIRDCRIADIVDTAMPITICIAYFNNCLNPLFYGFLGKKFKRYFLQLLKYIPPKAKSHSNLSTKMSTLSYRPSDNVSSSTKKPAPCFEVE
- method: BRET β-arrestin2 biosensor assay, higher receptor expression (hAT1R 5 ng/well), HEK293 cells
- Assay type: cell-based
- experimentalConditions: High AT1R Expression
pEC50: −log10 of the molar value.
assayEndpoint: pEC50

- CCCCC(=O)N(Cc1ccc(-c2cc(-c3ccc4ncccc4c3)ccc2-c2nn[nH]n2)cc1)C1(C(=O)O)CCCCC1 [Example 292]: 7.14
- CCc1nc2c(C)cc(C)nc2n1Cc1ccc(-c2cc(-c3cccc(OC)n3)ccc2-c2nn[nH]n2)cc1 [Example 29]: 7.95
- CCc1nc2c(C)cc(C)nc2n1Cc1ccc(-c2cc(-c3ccccc3)ccc2-c2noc(=S)[nH]2)cc1 [Example 72]: 7.48

# credit: patent US12037324B2
